Sourced from PubChem BioAssay (NCI)

# Test system: SK-MEL-5 melanoma
# method-description: NCI tumour cell line growth inhibition, 48 h

compound	inequality-symbol	TGI (µM)
COc1ccc2c(c1)C=C([N+](=O)[O-])C(C1OC(C)(C)OC1C1COC(C)(C)O1)O2 (stereo unspecified)	=	9.17
CCN(CC)CCCC(C)Nc1c(C)cnc2cc(Cl)c(C)cc12 (stereo unspecified)	=	13.3
COc1cc2c(cc1C)NC(=O)/C2=C/c1cccnc1	=	25.3
CC[O-].CC[O-].O=C1c2ccccc2C(=O)c2c(O)ccc([O-])c21.O=C1c2ccccc2C(=O)c2c(O)ccc([O-])c21.[Ti+4]	>	100
Cc1ccc2c(c1)C(=O)C1(C2)Cc2c(C)cccc2C1=O (stereo unspecified)	>	100
Cc1[nH]c(=O)[nH]c(=O)c1/C=C/C(=O)NC(CO)CC(C)C (stereo unspecified)	>	375
CCCCN=C(N)c1ccc(OCCSCCOc2ccc(C(N)=NCCCC)cc2)cc1	=	14.4
COc1ccc2c(c1)CCC1C3(CCCC21C)OCCO3 (stereo unspecified)	=	31.1
COc1ccc(C(=O)c2cc(C)c(OC)c(C)c2)c(OC)c1N(C(=O)C(Cl)Cl)C(=O)C(Cl)Cl	=	2.14
CC1CN1CC(O)C(O)CN1CC1C (stereo unspecified)	=	14.8
COc1cc(C(=O)NNC(=O)c2cc(Br)ccc2NC(=O)c2cccs2)cc(OC)c1OC	=	26.7
COc1ccccc1C[C@@H]1OC2(C=CC(=O)CC2SC(=O)c2ccccc2)O[C@H]1Cc1ccccc1OC (stereo partly specified)	=	3.1
COC(=O)C(=O)C(C(=O)C(=O)Nc1ccccc1C(N)=O)c1nc2ccc(Cl)cc2[nH]c1=O (stereo unspecified)	>	100
O=C1c2ccccc2-c2nnc(-c3ccc([N+](=O)[O-])cc3)cc21	>	10
CCN(CC)C(=O)c1cc(OC(C)C)ccc1-c1c(C)cc(OC(C)C)c(OC)c1OC	>	100
NC(=O)NC1NC(=O)NC1=O (stereo unspecified)	>	100
NCCCC[C@@H]1NC(=O)[C@H]2CCCN2C(=O)[C@H](Cc2ccccc2)NC(=O)[C@H](Cc2ccccc2)CNC1=O	>	100
CC/C=C\C[C@@H]1C/C=C2/C(=O)C=C[C@H]2C/C=C\CCCC(=O)O1	=	1.43
CC(C)(C)OC(=O)Cc1ccc2c(ccn2Cc2ccccc2)c1	>	100
NC(CC(=O)OCc1ccccc1)C(=O)OCc1ccccc1 (stereo unspecified)	>	100
COC(=O)c1cc(Br)c(Br)n1C	>	100

---

# Test system: BT-549 breast
# method-description: NCI tumour cell line growth inhibition, 48 h
# TGI values compiled below

compound	subject-of-test	inequality-symbol	TGI [µM]
Cc1nc(N)c(N2CCN(S(N)(=O)=O)CC2)c(=O)[nH]1	BT-549 breast	>	100
COC(=O)C1=CC2C(=O)c3ccccc3C1(c1ccccc1)N2C1CCCCC1 (stereo not given)	BT-549 breast	=	79.7
Cc1c2c(cc3c1C(=O)C(=O)C([C@@H](C)CO)=C3O)C(C)(C)CCC2	BT-549 breast	>	100
CCCCCCCC(CC(=O)NC(CO)C(=O)NC(CO)CC(C)C)OC(=O)CC(CCCCCCC)OC(=O)CC(CCCCCCC)OC1OC(C)C(O)C(OC2OC(C)C(O)C(OC(C)=O)C2O)C1O (stereo not given)	BT-549 breast	=	19.9
O=C(O)CC1OCC=C2CN3CCC45c6ccccc6NC4C1C2CC35 (stereo not given)	BT-549 breast	>	100

---

# Test system: PC-3 prostate
# method-description: NCI tumour cell line growth inhibition, 48 h
recorded-endpoint: TGI

compound	recorded-endpoint	result-value
O=c1[nH]c(=O)n(C/C=C/CO)nc1Br	TGI	> 100 µM
COc1cc2c(/C=C3/C(=O)Nc4ccc(O)cc43)c(Cl)n(Cc3ccccc3)c2cc1C	TGI	> 87.1 µM
O=S(=O)(/N=S(/Nc1ccccc1)C(Cl)Cl)c1ccccc1 (centres undefined)	TGI	> 100 µM
Cn1c(-c2cccs2)cc(-c2cccs2)c1-c1cccs1	TGI	> 100 µM
CC12CCCC(O)C1CCC1=CC3(CCC12)SCCS3 (centres undefined)	TGI	> 10 µM
CC(=O)OCC(OC(C)=O)C1C[C@H]2O[C@@H]3[C@H](C[C@H]2O1)O[C@@]1(C[C@@H]3C)C[C@H](C)[C@@H]2O[C@]3(C[C@@H]2O1)C[C@H]1O[C@H]2[C@H](C)[C@H]4OC(=O)C[C@H]5CC[C@@H]6OC7[C@H]8O[C@]9(CC[C@H]%10CC(=O)[C@H](CC[C@H]%11C[C@@H](C)C(=O)C(C[C@@H]4O[C@H]2C[C@H]1O3)O%11)O%10)CC8O[C@@H]7[C@@H](O9)[C@H]6O5 (some centres undefined)	TGI	> 1 µM
CSC1=N/C(=C\c2ccc(C)cc2)C(=O)N1	TGI	> 100 µM
CC1(C)C2CC(O)C1(C)CC2=O (centres undefined)	TGI	> 100 µM
CCOC(=O)C1(CO)CSCCSC1	TGI	> 100 µM

---

# System: UACC-62 melanoma
# method-description: NCI tumour cell line growth inhibition, 48 h
Measured TGI of individual entries
recorded-endpoint: TGI

compound	recorded-endpoint	result-value
O=C(CSc1ncccn1)N/N=C/c1ccccc1OCc1ccccc1	TGI	50.4 µM
CC(C)C[C@H]1[C@@H](OCc2ccccc2)COS(=O)(=O)N1[C@H](C)c1ccccc1	TGI	> 100 µM
CC(C)OC(=O)c1ccc(NCC2=CC(=O)C=CC2=O)cc1	TGI	31.4 µM
Cc1ccccc1N(CCC#N)C1=NN(C(=O)CC(=O)Nc2ccccc2)C(c2ccccc2)C1 (configuration not stated)	TGI	> 100 µM
CC(=O)OCC(OC(C)=O)C1C[C@H]2O[C@@H]3[C@H](C[C@H]2O1)O[C@@]1(C[C@@H]3C)C[C@H](C)[C@@H]2O[C@]3(C[C@@H]2O1)C[C@H]1O[C@H]2[C@H](C)[C@H]4OC(=O)C[C@H]5CC[C@@H]6OC7[C@H]8O[C@]9(CC[C@H]%10CC(=O)[C@H](CC[C@H]%11C[C@@H](C)C(=O)C(C[C@@H]4O[C@H]2C[C@H]1O3)O%11)O%10)CC8O[C@@H]7[C@@H](O9)[C@H]6O5 (some centres not stated)	TGI	> 1 µM
CC12CCCC(O)C1CCC1=CC3(CCC12)SCCS3 (configuration not stated)	TGI	> 10 µM
CC[C@]12C=CCN3CC[C@@]4(c5cc(Br)c(OC)c([N+](=O)[O-])c5N(C)[C@H]4[C@@](O)(C(=O)OC)[C@@H]1OC(C)=O)[C@@H]32	TGI	> 100 µM
NC(=O)NC1NC(=O)NC1=O (configuration not stated)	TGI	> 100 µM
C[C@]12CC[C@H]3[C@@H](CCC4=CC(=O)CC[C@@H]43)[C@@H]1CC[C@]2(O)C(N)=O	TGI	> 100 µM
CC(=O)OC1Oc2ccccc2-c2oc(=O)c(-c3cc4ccc(N(C)C)cc4oc3=O)cc21 (configuration not stated)	TGI	29.5 µM
CC(=O)OC1CC(O)C23COC(O)C1(C)C2CC(O)C1(C)C3C(=O)C(O)C2(C)C(c3ccoc3)CC3OC321 (configuration not stated)	TGI	< 0.0129 µM
Cc1ccc(S(=O)(=O)n2c(-c3ccccc3)c(-c3ccccc3)c3ccccc32)cc1	TGI	> 100 µM
CCN(CC)CCN1CC(O)=C(c2nc(-c3ccc(Cl)cc3)cs2)C1=N	TGI	3.53 µM
COC(=O)C1C2OC(C)(C)OC2CN1S(=O)(=O)c1ccc(C)cc1 (configuration not stated)	TGI	> 100 µM
COC(=O)c1ccccc1/C=C1\Cc2c(ccc3c2CCC3)C1=O	TGI	> 100 µM
O=C(/C=C/c1cccc([N+](=O)[O-])c1)N1CCN(CCOC(c2ccccc2)c2ccccc2)CC1	TGI	> 100 µM
O=C(CCl)Nc1ccc(Cl)cc1	TGI	17 µM

---

# Test system: NCI-H460 lung
# method-description: NCI tumour cell line growth inhibition, 48 h
Overview of reported TGI across a group of molecules:
recorded-endpoint: TGI

molecule	result-value
CC(=O)c1c(-c2ccc(Cl)cc2)c(-c2ccc(Cl)cc2)n[nH]c1=O	> 100 µM
COc1cc(NC(=O)c2cc(O)c(CC=C(C)C)c(O)c2)cc2c1O[C@]1(C)CC[C@@H](O)C(C)(C)[C@H]1C2	19.2 µM
COC(=O)Nc1nc2ccc(Oc3ccc(NC(=O)Nc4ccccc4)cc3)cc2[nH]1	2.71 µM
CC(C)OC(=O)c1ccc(NCC2=CC(=O)C=CC2=O)cc1	> 100 µM
CC(=O)OC1=NN=C2COC(c3ccccc3OC(C)=O)=NN2C1	> 50 µM
COc1ccc(-c2cn3ccsc3n2)cc1	> 100 µM
NC(CC(=O)OCc1ccccc1)C(=O)OCc1ccccc1 (stereo unspecified)	> 100 µM
N.N.N.N.N.O=C([O-])c1nn[n-]n1.[Cl-].[Co+3]	> 100 µM
NC(=S)N/N=C/c1ccc(OC(=O)COc2ccc(Cl)cc2)cn1	18.9 µM
CC1=NN(c2cccc(S(=O)(=O)O)c2)C2(C1)C(Cl)C(=O)N2c1nc2ccccc2s1 (stereo unspecified)	26.3 µM
COC(=O)c1ccccc1/C=C1\Cc2c(ccc3c2CCC3)C1=O	> 100 µM
